# testSystem: human recombinant sPLA2-V (Homo sapiens, UniProt P39877)
# Sequence (P39877 21-138): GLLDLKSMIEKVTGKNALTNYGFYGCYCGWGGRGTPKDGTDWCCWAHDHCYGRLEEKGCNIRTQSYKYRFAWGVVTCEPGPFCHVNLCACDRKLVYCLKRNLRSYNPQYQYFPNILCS
# assayOverview: Secretory PLA2-V activity assay (Ellman's photometric method)
pIC50: −log10 of the molar value.
Could you label it True if measured pIC50 is 5 or higher, and False otherwise?

INSERT INTO measurements (molecule, qualitativelabel) VALUES
  ('CC(=O)c1cccc(/N=N/c2ccc(O)c(C(=O)O)c2)c1 [Compound A3]', 'True'),
  ('CC(=O)c1cccc(/N=N/c2c(O)ccc3ccccc23)c1 [Compound A5]', 'True'),
  ('CN(C)c1ccc(/C=C/C(=O)c2cccc(/N=N/c3ccc(O)cc3O)c2)cc1 [Compound C14]', 'True'),
  ('CC(=O)c1cccc(/N=N/c2ccc(O)c3ccccc23)c1 [Compound A4]', 'False'),
  ('CN(C)c1ccc(/C=C/C(=O)c2cccc(/N=N/c3ccc(O)c4ccccc34)c2)cc1 [Compound C16]', 'True'),
  ('O=C(/C=C/c1ccc(F)cc1)c1cccc(/N=N/c2ccc(O)cc2O)c1 [Compound C8]', 'False');

Data credit: paper PMC8876975
